src = ChEMBL document CHEMBL1201862

System: OVCAR-3
Experiment Summary: NCI tumour cell line growth inhibition, 48 h
Activity calls are given as the source filed them. Rule as the data show it: active = GI50 up to about 1.1 µM and inactive = higher.
Your answer must be one of the following: y for active, n for inactive

Past entries and their recorded results:
CCOC(=O)c1cc2c(OC)cc(OC)cc2oc1=O : n
CCOC(=O)c1ccc(N2C(=S)N(C(=O)c3ccccc3)C(=N/c3ccccc3)/C2=N\c2ccccc2)cc1 : n

// return assay outcome for "COc1ccc(O[C@H](COCc2ccccc2)C[C@@H]2COC(C)(C)O2)cc1"
n

What call does the record list for "O=C(Cn1nc(Br)c(Br)c1Br)c1ccccc1" ?
n

Which result was noted for this molecule in the test: CSCSCC(CO)NC(=O)/C(C)=C\c1c(C)[nH]c(=O)[nH]c1=O (centres undefined)
n
